Measured TGI values are reported for all entries that follow.
Tested on: DMS 273 small cell lung
EXPERIMENT: NCI tumour cell line growth inhibition, 48 h

>  <MOLECULE>
CCOC(=O)N[C@H]1CCc2cc(OC)c(OC)c(OC)c2-c2ccc(SC)c(=O)cc21

>  <UNITS>
µM

>  <QUALIFIER SYMBOL>
>

>  <TGI>
100

$$$$
>  <MOLECULE>
C[N+](C)([O-])CCOc1cc2c(c3ccccc13)-c1ccccc1C2=O

>  <UNITS>
µM

>  <QUALIFIER SYMBOL>
=

>  <TGI>
43.9

$$$$
>  <MOLECULE>
Cc1ccc(/C=N\NC2c3cc(Cl)ccc3Nc3nc(=O)[nH]c(C)c32)cc1 (stereo not given)

>  <UNITS>
µM

>  <QUALIFIER SYMBOL>
>

>  <TGI>
100

$$$$
>  <MOLECULE>
C/C(CC(=O)Nc1ccc(C)c(C)c1)=N\N(c1ccccc1)c1ccccc1

>  <UNITS>
µM

>  <QUALIFIER SYMBOL>
=

>  <TGI>
33.5

$$$$
>  <MOLECULE>
O=C1CCC2(c3ccc(Cl)cc3)Nc3cc(Cl)ccc3N12 (stereo not given)

>  <UNITS>
µM

>  <QUALIFIER SYMBOL>
=

>  <TGI>
22.3

$$$$

---

TGI for assorted compounds
Test system: A498 renal
EXPERIMENT: NCI tumour cell line growth inhibition, 48 h
RECORDED METRIC: TGI

>  <COMPOUND>
C[n+]1c(/C=C/c2c(O)ccc3ccccc23)ccc2ccccc21

>  <RECORDED METRIC>
TGI

>  <READOUT VALUE>
9.43 µM

$$$$
>  <COMPOUND>
C[C@H](CCC(=O)O)[C@H]1CC[C@H]2[C@@H]3C(=O)C[C@@H]4C[C@H](O)CC[C@]4(C)[C@H]3C[C@H](O)[C@]12C

>  <RECORDED METRIC>
TGI

>  <READOUT VALUE>
> 100 µM

$$$$
>  <COMPOUND>
C[C@@H]1C[C@@H]([C@@H](CC2CC(=O)NC(=O)C2)OC(=O)CC(=O)c2ccccc2)C(=O)[C@@H](C)C1

>  <RECORDED METRIC>
TGI

>  <READOUT VALUE>
2.36 µM

$$$$
>  <COMPOUND>
Cc1c(N(C)C)ccc2c(=O)c3cccc(CC(=O)O)c3oc12

>  <RECORDED METRIC>
TGI

>  <READOUT VALUE>
> 100 µM

$$$$
>  <COMPOUND>
Clc1ccc(-c2nnc3sc4nc5ccccc5c-4nn23)c(Cl)c1

>  <RECORDED METRIC>
TGI

>  <READOUT VALUE>
> 100 µM

$$$$
>  <COMPOUND>
CN(C)C(=S)/N=c1\sn(C)/c(=N\C(=S)N(C)C)n1C

>  <RECORDED METRIC>
TGI

>  <READOUT VALUE>
> 100 µM

$$$$
>  <COMPOUND>
CSC1=N/C(=C\c2ccc(C)cc2)C(=O)N1CN1CCCCC1

>  <RECORDED METRIC>
TGI

>  <READOUT VALUE>
> 100 µM

$$$$
>  <COMPOUND>
C=CCn1c(=O)c(C(=O)Nc2nc(C34CC5CC(CC(C5)C3)C4)cs2)c(O)c2ccccc21

>  <RECORDED METRIC>
TGI

>  <READOUT VALUE>
> 100 µM

$$$$
>  <COMPOUND>
NCCCN1c2ccccc2Sc2ccc(Cl)cc21

>  <RECORDED METRIC>
TGI

>  <READOUT VALUE>
> 10 µM

$$$$
>  <COMPOUND>
O=C1CC2(CCC(O)(c3ccc4ccccc4c3)C(C(=O)c3ccc4ccccc4c3)C2)C(=O)c2ccccc2N1 (stereo unspecified)

>  <RECORDED METRIC>
TGI

>  <READOUT VALUE>
> 100 µM

$$$$
>  <COMPOUND>
CCOS(C)(=O)=O

>  <RECORDED METRIC>
TGI

>  <READOUT VALUE>
> 100 µM

$$$$
>  <COMPOUND>
CCN(CC)CCNc1nc(N)c(C#N)c(C#N)c1C#N

>  <RECORDED METRIC>
TGI

>  <READOUT VALUE>
> 10 µM

$$$$
>  <COMPOUND>
COC(=O)/C(=N\NC(N)=S)C(C(=O)OC)C(=O)C(=O)Nc1ccc(C)cc1 (stereo unspecified)

>  <RECORDED METRIC>
TGI

>  <READOUT VALUE>
> 100 µM

$$$$
>  <COMPOUND>
Cc1c2n(c(=O)[nH]c1=O)C1OC(CO)C(N=[N+]=[N-])C1O2 (stereo unspecified)

>  <RECORDED METRIC>
TGI

>  <READOUT VALUE>
> 100 µM

$$$$
>  <COMPOUND>
CCNC(=S)NNC(=O)C12CC3CC(CC(C3)C1)C2

>  <RECORDED METRIC>
TGI

>  <READOUT VALUE>
> 100 µM

$$$$
>  <COMPOUND>
O=[N+]([O-])C(=C(Nc1cccc2cccnc12)Nc1cccc2cccnc12)C(Cl)=C(Cl)Cl

>  <RECORDED METRIC>
TGI

>  <READOUT VALUE>
> 100 µM

$$$$
>  <COMPOUND>
CC1=CCC([C@@](C)(O)CCCC(C)(C)N=C=S)CC1 (stereo partly specified)

>  <RECORDED METRIC>
TGI

>  <READOUT VALUE>
28.7 µM

$$$$
>  <COMPOUND>
COc1ccc(C2c3cn[nH]c3CC3CCCCC32)cc1 (stereo unspecified)

>  <RECORDED METRIC>
TGI

>  <READOUT VALUE>
23 µM

$$$$
>  <COMPOUND>
O=[N+]([O-])C(=C(Nc1ccccc1)Nc1ccccc1)C(Cl)=C(Cl)Cl

>  <RECORDED METRIC>
TGI

>  <READOUT VALUE>
26.2 µM

$$$$
>  <COMPOUND>
O=S(=O)(O)C(CO)c1ccccc1 (stereo unspecified) (tested in a mixture with another compound)

>  <RECORDED METRIC>
TGI

>  <READOUT VALUE>
> 100 µM

$$$$
>  <COMPOUND>
Cc1cccc(C)c1NC(=O)C(Cc1c[nH]c2ccccc12)NC(=O)OCc1ccccc1 (stereo unspecified)

>  <RECORDED METRIC>
TGI

>  <READOUT VALUE>
69.8 µM

$$$$

---

System: SK-MEL-2 melanoma
EXPERIMENT: NCI tumour cell line growth inhibition, 48 h
TGI overview

>  <COMPOUND>
COC(=O)/C(=C/c1ccc(OC)cc1)C(C(=O)O)=C1CCCC1

>  <QUALIFIER SYMBOL>
>

>  <TGI [µM]>
100

$$$$
>  <COMPOUND>
O=C1NC2c3c(I)sc(I)c3C(O)C2O1 (configuration not stated)

>  <QUALIFIER SYMBOL>
>

>  <TGI [µM]>
100

$$$$
>  <COMPOUND>
O=C(Nc1cccc(Cl)c1)C(=O)C(C(=O)c1ccc2ccccc2c1)C1OC(=O)c2ccccc21 (configuration not stated)

>  <QUALIFIER SYMBOL>
=

>  <TGI [µM]>
32.5

$$$$
>  <COMPOUND>
COc1cc(N=Nc2ccc(O)c3ncccc23)c2ncccc2c1

>  <QUALIFIER SYMBOL>
>

>  <TGI [µM]>
100

$$$$
>  <COMPOUND>
C#CC1/C(=C\C(=O)OC)CCCC1O (configuration not stated)

>  <QUALIFIER SYMBOL>
>

>  <TGI [µM]>
100

$$$$
>  <COMPOUND>
CC(=O)Nc1ccc(-c2csc(Nc3cccc(-c4csc(C)n4)c3)n2)cc1

>  <QUALIFIER SYMBOL>
>

>  <TGI [µM]>
27.3

$$$$
>  <COMPOUND>
O=C(Nc1cccc(C(F)(F)F)c1)c1ccc(NC2=C(Cl)C(=O)N(Cc3ccc(Cl)cc3Cl)C2=O)cc1

>  <QUALIFIER SYMBOL>
=

>  <TGI [µM]>
25.6

$$$$
>  <COMPOUND>
Cc1ccc(C2=CC(=O)OC(C[P+](c3ccccc3)(c3ccccc3)c3ccccc3)(c3ccccc3)O2)cc1 (configuration not stated)

>  <QUALIFIER SYMBOL>
=

>  <TGI [µM]>
29.2

$$$$
>  <COMPOUND>
COc1ccc2nc3ccccc3c(NCc3ccc(F)cc3)c2c1

>  <QUALIFIER SYMBOL>
=

>  <TGI [µM]>
10.4

$$$$
>  <COMPOUND>
NC(N)=N/N=C/c1c(Cl)cccc1Cl

>  <QUALIFIER SYMBOL>
=

>  <TGI [µM]>
36.1

$$$$
>  <COMPOUND>
CCn1c(O)c(/C=N/NC(=O)C(C)c2ccc(CC(C)C)cc2)sc1=S (configuration not stated)

>  <QUALIFIER SYMBOL>
>

>  <TGI [µM]>
49.8

$$$$
>  <COMPOUND>
CSC1=N/C(=C\c2ccc(C)cc2)C(=O)N1CN1CCCCC1

>  <QUALIFIER SYMBOL>
>

>  <TGI [µM]>
100

$$$$
>  <COMPOUND>
CSc1cc(-c2cccs2)sc1-c1cc(SC)c(-c2sc(-c3sc(-c4cccs4)cc3SC)cc2SC)s1

>  <QUALIFIER SYMBOL>
>

>  <TGI [µM]>
100

$$$$
>  <COMPOUND>
CC(C)(/C=C(\C#N)C(=O)N1CCC[C@@H](n2nc(-c3ccc(Oc4ccccc4)cc3F)c3c(N)ncnc32)C1)N1CCN(C2COC2)CC1

>  <QUALIFIER SYMBOL>
=

>  <TGI [µM]>
26.2

$$$$
>  <COMPOUND>
S=c1[nH]c(=S)c2cc3ccccc3nc2[nH]1

>  <QUALIFIER SYMBOL>
=

>  <TGI [µM]>
84.7

$$$$
>  <COMPOUND>
COc1ccc(N2C(=O)CC(=O)N(NC(=O)C(C)Oc3ccccc3C)C2=S)cc1 (configuration not stated)

>  <QUALIFIER SYMBOL>
>

>  <TGI [µM]>
100

$$$$
>  <COMPOUND>
CSc1nc(SC)c2c(C#N)[nH]nc2n1

>  <QUALIFIER SYMBOL>
>

>  <TGI [µM]>
100

$$$$
>  <COMPOUND>
N#C/C(=C\c1ccc2ccccc2c1)C(=O)c1ccccc1

>  <QUALIFIER SYMBOL>
>

>  <TGI [µM]>
100

$$$$
>  <COMPOUND>
O=c1oc2ccc(-c3ccc(F)cc3F)cc2c(=O)n1-c1cccc(C(F)(F)F)c1

>  <QUALIFIER SYMBOL>
=

>  <TGI [µM]>
2.85

$$$$
>  <COMPOUND>
O=C(/C=C/c1ccccc1)Oc1ccc(C(=O)/C=C/c2ccccc2)cc1

>  <QUALIFIER SYMBOL>
>

>  <TGI [µM]>
66.1

$$$$
>  <COMPOUND>
N#CNC(=NCc1ccccc1)N(Cc1ccccc1)Cc1ccccc1

>  <QUALIFIER SYMBOL>
=

>  <TGI [µM]>
26.4

$$$$
>  <COMPOUND>
CC1(C)COC(c2cccc3c2C(=O)c2cccc(Cl)c2-3)=N1

>  <QUALIFIER SYMBOL>
>

>  <TGI [µM]>
100

$$$$
